biological target: Acetylcholinesterase (AChE) from Electrophorus electricus (electrical eels) type VI-S (Electrophorus electricus, UniProt O42275)
Sequence (O42275 24-633): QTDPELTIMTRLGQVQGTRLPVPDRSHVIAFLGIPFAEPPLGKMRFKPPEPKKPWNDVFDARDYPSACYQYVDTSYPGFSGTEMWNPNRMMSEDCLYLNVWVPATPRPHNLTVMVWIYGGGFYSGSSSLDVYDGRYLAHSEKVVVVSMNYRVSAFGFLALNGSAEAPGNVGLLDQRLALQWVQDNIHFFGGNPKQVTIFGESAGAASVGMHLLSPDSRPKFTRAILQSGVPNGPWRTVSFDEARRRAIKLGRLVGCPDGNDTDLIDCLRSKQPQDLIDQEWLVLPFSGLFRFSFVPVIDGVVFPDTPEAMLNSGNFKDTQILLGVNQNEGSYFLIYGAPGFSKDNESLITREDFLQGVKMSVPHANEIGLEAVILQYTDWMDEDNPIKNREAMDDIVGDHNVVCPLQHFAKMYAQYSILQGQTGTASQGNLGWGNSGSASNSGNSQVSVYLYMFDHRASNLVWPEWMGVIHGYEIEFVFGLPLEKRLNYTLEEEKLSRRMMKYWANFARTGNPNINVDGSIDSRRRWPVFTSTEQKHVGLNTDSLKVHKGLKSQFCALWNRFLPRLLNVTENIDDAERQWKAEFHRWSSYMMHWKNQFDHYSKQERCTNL
pIC50: −log10 of the molar value.
Measurement type: pIC50

Sample smiles | Measured value
COc1c(-c2ccc(O)c(O)c2)oc2cc(O)cc(O)c2c1=O | 4.08
